Would you mind telling me the reported normalized growth of each entry?
test: chemical genetic growth profiling, strain panel (AID 1159580);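 also: tested at 20 µM; growth read once vehicle control cultures reached saturation at 30 °C; 1 = growth at the plate median or of vehicle wells; lower values mean less growth of the strain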; details: S. cerevisiae deletion strains, growth OD, locus YIL073C, strain SPO22, stronger effect = lower value
Out of some 5,500 compounds screened, about 2,000 (36%) were called active. Inconclusive results (about 18%) are left out. This is one part of the list.
When you answer, write just the number.

Request: Give its normalized growth value. Item: `OC[C@H]1O[C@@H](n2cnc3c(NCc4ccco4)ncnc32)[C@H](O)[C@@H]1O`
Response: 1.01

Request: Give its normalized growth value. Item: `Cc1cc(CC(=O)O)n(C)c1C(=O)c1ccc(Cl)cc1`
Response: 1.02

Request: Give its normalized growth value. Item: CC1CCC(NC(=O)N(CCCl)N=O)CC1 (stereo not given)
Response: 1.02

Request: Give its normalized growth value. Item: Cc1cccc(C)c1NC(=O)C1CCCCN1C (stereo not given)
Response: 1.01

Request: Give its normalized growth value. Item: `NC1(C(=O)O)CCCC1`
Response: 1.02

Values from PubChem BioAssay AID1159580
